# Tested on: trichomonal hydrolases
# assay-comment: Experiment 13: hydrolysis of peptide substrates by trichomonal hydrolases at low pH, no vaginal fluid
# Format: biochemical, Trichomonas vaginalis
# Set-up: key: −: No red color produced; +: Clearly visible red color produced; ++: Moderately intense red color produced; +++: Very intense red color produced
# run-parameters: without vaginal fluid; threonine buffer pH 2.4; 2 mM substrate solution; 10 min 25° C.; Fast Garnet
Peptide text beside a SMILES is read from it. * marks the point of attachment. βNA = c1ccc2cc(N*)ccc2c1; Cbz = O=C(OCc1ccccc1)*

molecule | Color Score
COc1cc(NC(=O)[C@H](CCCNC(=N)N)NC(=O)[C@H](Cc2ccccc2)NC(=O)OCc2ccccc2)cc2ccccc12 | ++
CC(C)[C@H](N)C(=O)Nc1ccc2ccccc2c1 | −
N[C@@H](Cc1cnc[nH]1)C(=O)Nc1ccc2ccccc2c1 | −
N[C@@H](Cc1ccccc1)C(=O)Nc1ccc2ccccc2c1 | −
COc1cc(NC(=O)C(CCCN=C(N)N)NC(=O)C(CC(C)C)NC(=O)C(N)C(C)C)cc2ccccc12 (stereo not shown) | +++
O=C(CNC(=O)OCc1ccccc1)NCC(=O)N[C@@H](Cc1ccccc1)C(=O)Nc1ccc2ccccc2c1 [CBZ-Gly-Gly-Phe-βNA] (Cbz-Gly-Gly-Phe-βNA) | −
COc1cc(NC(=O)[C@H](C)NC(=O)[C@H](C)NC(=O)[C@H](CCC(N)=O)NC(=O)OC(C)(C)C)cc2ccccc12 | −

* * *

# Hydrolase activity color score with polypeptide listing for each entry below
# System: non-trichomonal hydrolases present in vaginal fluid
# assay-comment: Experiment 8: polypeptide inhibition of hydrolases in whole vaginal fluid of uninfected women
# Assay type: biochemical, human
# Set-up: key: 0: Yellow; 1: Peach; 2: Orange; 3: Light to medium pink; 4: Dark pink or red; 5: Fuchsia; 6: Purple
# run-parameters: pH 8; Donor C whole vaginal fluid; ZRR-MNA; 10 mM polypeptide in substrate solution
Ends that are not written are not given here.
observation-type: Hydrolase activity color score with polypeptide

substance | recorded-result
RPKPQFFGLM [Arg-Pro-Lys-Pro-Gln-Phe-Phe-Gly-Leu-Met] | 0
KRQHPG | 0.5
KPQLWP | 0
Arg-Lys-Asn-Val-Tyr (RKNVY; printed: Arg-Lys-Asn-Val-Tyr) | 1

* * *

// values below are reported Hydrolase activity color score with polypeptide
# Test system: non-trichomonal hydrolases present in vaginal fluid
# assay-comment: Experiment 8: polypeptide inhibition of hydrolases in whole vaginal fluid of uninfected women
# Type: biochemical, human
# Design: key: 0: Yellow; 1: Peach; 2: Orange; 3: Light to medium pink; 4: Dark pink or red; 5: Fuchsia; 6: Purple
# run-parameters: pH 8; Donor B whole vaginal fluid; ZRR-MNA; 10 mM polypeptide in substrate solution
Ends that are not written are not given here.
observation-type: Hydrolase activity color score with polypeptide

substance | tested-target | recorded-result
KRQHPG | non-trichomonal hydrolases present in vaginal fluid | 2
KPQLWP | non-trichomonal hydrolases present in vaginal fluid | 0.5
Arg-Lys-Asn-Val-Tyr (RKNVY; printed: Arg-Lys-Asn-Val-Tyr) | non-trichomonal hydrolases present in vaginal fluid | 0.5
RPKPQFFGLM [Arg-Pro-Lys-Pro-Gln-Phe-Phe-Gly-Leu-Met] | non-trichomonal hydrolases present in vaginal fluid | 0.5

* * *

# Tested on: trichomonal hydrolases
# assay-comment: Experiment 12: hydrolysis of ZRRR-MNA by trichomonal hydrolases in four buffers
# Assay type: biochemical, Trichomonas vaginalis
# run-parameters: pH 2.6 Buffer after mixing with substrate and trichomonal hydrolase solution

compound | tested-target | Final pH
NCC(=O)O | trichomonal hydrolases | pH 2.9
C[C@@H](O)[C@H](N)C(=O)O | trichomonal hydrolases | pH 2.9
O=C(O)CC(O)C(=O)O (racemic) | trichomonal hydrolases | pH 2.9

* * *

# Test system: trichomonal hydrolases
# assay-comment: Experiment 12: hydrolysis of ZRRR-MNA by trichomonal hydrolases in four buffers
# Format: biochemical, Trichomonas vaginalis
# run-parameters: pH 2.0 Buffer after mixing with substrate and trichomonal hydrolase solution

compound | Final pH
C[C@@H](O)[C@H](N)C(=O)O | pH 2.3
NCCCC[C@H](N)C(=O)O | pH 2.3
NCC(=O)O | pH 2.4
O=C(O)CC(O)C(=O)O (racemic) | pH 2.4

* * *

Catalogue of Color Scores: Whole normal vaginal fluid readings, one per entry.
# Tested on: hydrolases present in whole normal vaginal fluid
# assay-comment: Experiment 2: hydrolysis of substrates by whole normal vaginal fluid, visual color score
# Type: biochemical, human
# run-parameters: pH 5 acetate; visual 0-6 scale
# Description: Due to the partial opacity of cells and other particulate matter in whole vaginal fluid, assays of hydrolase activity present in whole vaginal fluid were performed in 20 μL conical microwells and scored visually. […] After another fifteen minutes, the color in each well was visually scored in 0.5-unit increments using the 0-6 scale presented in Table 2.1.
Peptide text beside a SMILES is read from it. * marks the point of attachment. AMC = Cc1cc(=O)oc2cc(N*)ccc12; Cbz = O=C(OCc1ccccc1)*; Boc = CC(C)(C)OC(=O)*
observation-type: Color Scores: Whole normal vaginal fluid

molecule | tested-target | recorded-result
Cc1cc(=O)oc2cc(NC(=O)[C@H](CCCNC(=N)N)NC(=O)[C@H](CCCCN)NC(=O)[C@H](CCCCN)NC(=O)OCc3ccccc3)ccc12 [ZKKR-AMC, CBZ-Lys-Lys-Arg-AMC] (Cbz-Lys-Lys-Arg-{AMC}) | hydrolases present in whole normal vaginal fluid | 0.5
Cc1cc(=O)oc2cc(NC(=O)[C@H](CCCN=C(N)N)NC(=O)[C@H](CCCN=C(N)N)NC(=O)[C@H](CC(C)C)NC(=O)OC(C)(C)C)ccc12 [BLRR-AMC, BOC-Leu-Arg-Arg-AMC] (Boc-Leu-Arg-Arg-{AMC}) | hydrolases present in whole normal vaginal fluid | 0.5
Cc1cc(=O)oc2cc(NC(=O)[C@H](CCCN=C(N)N)NC(=O)[C@H](CCCCN)NC(=O)[C@H](CC(C)C)NC(=O)OC(C)(C)C)ccc12 [BLKR-AMC, BOC-Leu-Lys-Arg-AMC] (Boc-Leu-Lys-Arg-{AMC}) | hydrolases present in whole normal vaginal fluid | 0.5
COc1cc(NC(=O)[C@H](CCCN=C(N)N)NC(=O)[C@H](CCCN=C(N)N)NC(=O)OCc2ccccc2)cc2ccccc12 | hydrolases present in whole normal vaginal fluid | 3

* * *

# Test system: trichomonal hydrolases
# assay-comment: Experiment 12: hydrolysis of ZRRR-MNA by trichomonal hydrolases in four buffers
# Assay type: biochemical, Trichomonas vaginalis
# run-parameters: pH 2.4 Buffer after mixing with substrate and trichomonal hydrolase solution
# Description: Fifty μL of each buffer solution, at pH 2.0, 2.2, 2.4, or 2.6, was pipetted into separate wells of a microtiter plate. Twenty-five μL of 8 mM ZRRR-MNA and 25 μL of 10% trichomonal hydrolase solution were added to each well, and 20 μL were then removed from each well for measurement of final pH. […] The intensity of pink color that developed on each swab after five minutes was visually scored in 0.5 unit increments using the 0-9 color scale presented in Table 11.1 of the preceding example.

compound | Final pH
NCC(=O)O [Glycine] | pH 2.7
C[C@@H](O)[C@H](N)C(=O)O [L-threonine] | pH 2.7

* * *

# Test system: non-trichomonal hydrolases present in vaginal fluid
# assay-comment: Experiment 8: polypeptide inhibition of hydrolases in whole vaginal fluid of uninfected women
# Type: biochemical, human
# Parameters: key: 0: Yellow; 1: Peach; 2: Orange; 3: Light to medium pink; 4: Dark pink or red; 5: Fuchsia; 6: Purple
# run-parameters: pH 5; Donor D whole vaginal fluid; ZRR-MNA; 10 mM polypeptide in substrate solution
Ends that are not written are not given here.
Quick list: Hydrolase activity color score with polypeptide per entry.
observation-type: Hydrolase activity color score with polypeptide

substance | tested-target | recorded-result
Arg-Lys-Asn-Val-Tyr (RKNVY; printed: Arg-Lys-Asn-Val-Tyr) | non-trichomonal hydrolases present in vaginal fluid | 0
KPQLWP | non-trichomonal hydrolases present in vaginal fluid | 0
RPKPQFFGLM [Arg-Pro-Lys-Pro-Gln-Phe-Phe-Gly-Leu-Met] | non-trichomonal hydrolases present in vaginal fluid | 0.5
KRQHPG | non-trichomonal hydrolases present in vaginal fluid | 2

* * *

# System: trichomonal hydrolases
# assay-comment: Experiment 8: polypeptide inhibition of trichomonal hydrolases
# Assay type: biochemical, Trichomonas vaginalis
# run-parameters: pH 8, ZRR-MNA, 10 mM polypeptide in substrate solution
Ends that are not written are not given here.
observation-type: Hydrolase activity color score with polypeptide

substance | tested-target | recorded-result
RPKPQFFGLM [Arg-Pro-Lys-Pro-Gln-Phe-Phe-Gly-Leu-Met] | trichomonal hydrolases | 0.5
KRQHPG | trichomonal hydrolases | 3
KPQLWP | trichomonal hydrolases | 3
Arg-Lys-Asn-Val-Tyr (RKNVY; printed: Arg-Lys-Asn-Val-Tyr) | trichomonal hydrolases | 3

* * *

# System: trichomonal hydrolases
# assay-comment: Experiment 13: hydrolysis of peptide substrates by trichomonal hydrolases at low pH, no vaginal fluid
# Type: biochemical, Trichomonas vaginalis
# Parameters: key: −: No red color produced; +: Clearly visible red color produced; ++: Moderately intense red color produced; +++: Very intense red color produced
# run-parameters: without vaginal fluid; threonine buffer pH 2.4; 2 mM substrate solution; 10 min 25° C.; Fast Garnet
Peptide text beside a SMILES is read from it. * marks the point of attachment. βNA = c1ccc2cc(N*)ccc2c1
observation-type: Color Score

compound | recorded-result
O=C(Nc1ccc2ccccc2c1)[C@@H]1CCCN1 [Pro-βNA] | −
NCCCC[C@H](N)C(=O)Nc1ccc2ccccc2c1 [Lys-βNA] | −
CSCC[C@H](NC(=O)[C@@H](N)CO)C(=O)Nc1ccc2ccccc2c1 [Ser-Met-βNA] (H-Ser-Met-βNA) | −
COc1cc(NC(=O)C(CCCNC(=N)N)NC(=O)OCc2ccccc2)cc2ccccc12 (stereo not drawn) [CBZ-Arg-MNA] | −
COc1cc(NC(=O)C(CCCN=C(N)N)NC(=O)CN)cc2ccccc12 (stereo not drawn) [Gly-Arg-MNA] | −
COc1cc(NC(=O)[C@@H](N)CCCN=C(N)N)cc2ccccc12 [Arg-MNA] | −
NCC(=O)N[C@@H](Cc1c[nH]c2ccccc12)C(=O)Nc1ccc2ccccc2c1 [Gly-Trp-βNA] (H-Gly-Trp-βNA) | −
C[C@H](NC(=O)[C@@H](N)CCCCN)C(=O)Nc1ccc2ccccc2c1 [Lys-Ala-βNA] (H-Lys-Ala-βNA) | −
NCC(=O)Nc1ccc2ccccc2c1 [Gly-βNA] | −

Values were extracted from patent US20080026417A1.
